test system: HCT-15 colon; assay: NCI tumour cell line growth inhibition, 48 h
Here, each record is paired with measured TGI data.
property measured: TGI

| compound | observed value |
| --- | --- |
| NC(N)=NS(=O)(=O)c1ccc(Nc2c3ccccc3nc3c(C(=O)Nc4ccc(S(N)(=O)=O)cc4)cccc23)cc1 | > 100 µM |
| C=CCc1cccc2cc(C(=O)Nc3ccccn3)c(=N)oc12 | > 100 µM |
| COI1NC(=O)c2ccccc21 | > 100 µM |
| CC(C)CC(NC(=O)OC(C)(C)C)C(=O)Nc1ccc(Nc2nc(F)nc(-c3c4ccccc4cn3C)n2)cc1 (stereo not given) | > 100 µM |
| O=[N+]([O-])c1ccc(N/N=C/c2ccc(OCCCCCCCCCCCO)cc2)c([N+](=O)[O-])c1 | > 100 µM |
| CCOC(=O)c1ccc(N=c2sc3ccccc3nc2Nc2ccc(C(=O)OCC)cc2)cc1 | > 100 µM |
| COC(C)(C)C/C=C/C(C)=C/C=C/C(C)=C\C=C\C(C)=C\C=C\C=C(C)\C=C\C=C(C)\C=C\C=C(C)\C=C\CC(C)(C)OC | > 150 µg/mL |
| N#CC1(C#N)C(C#N)(C#N)C12CCCCCC2 | 24.2 µM |
| CC(=O)O[C@H]1[C@H](OC(=O)CC(C)(O)CC(=O)O)C[C@]2(C)C3=C(CCC2C1(C)C)[C@]1(C)CC[C@H]([C@H]2CC[C@H](C(C)(C)O)OC2O)[C@@]1(C)[C@@H](O)C3 (stereo not given in full) | 34.9 µM |
| CC(C(O)c1ccccc1)C(O)(C(F)(F)F)C(F)(F)F (stereo not given) | > 100 µM |
